Biological target: purified sickle cell hemoglobin (HbS) (Homo sapiens, UniProt P68871+P69905, E7V)
Construct: HbS was obtained from the blood of homozygous S/S patients
Assay: Binding affinity to purified HbS by Surface Plasmon Resonance (SPR)
Details: crosslinked biotinylated HbS, 1:1 binding model
Procedure: Binding Affinity, Kd (uM) The binding affinity for compounds to purified sickle cell hemoglobin (HbS) was determined using Surface Plasmon Resonance (SPR). Patient Sickle Cell blood was obtained from Boston Children's Hospital in accordance with Institutional Review Board protocols. […] Purity of the resulting HbS and HbA was determined by native gel electrophoresis and HbS fractions used further. […]
measurement name: pKd
Units for pKd: none; it is -log10 of a concentration expressed in mol/L.

Answered cases to consult:
compound: C[C@H](Oc1cc2cc(F)ccc2nc1N)c1cc(NS(C)(=O)=O)ccc1-n1cccn1 [Example 18]
target or test system: purified sickle cell hemoglobin (HbS) (Homo sapiens, UniProt P68871+P69905, E7V)
pKd: 6.71

compound: Cc1ccc2nc(N)c(O[C@@H](C)c3nc(O)ccc3-n3cccn3)cc2n1 [Example 54]
target or test system: purified sickle cell hemoglobin (HbS) (Homo sapiens, UniProt P68871+P69905, E7V)
pKd: 6.05

compound: C[C@H](Oc1cc2cc(F)ccc2nc1N)c1cc(C(N)=O)c(F)cc1-n1cccn1 [Example 1]
target or test system: purified sickle cell hemoglobin (HbS) (Homo sapiens, UniProt P68871+P69905, E7V)
pKd: 7.70

The value of pKd measured for the compound C[C@H](Oc1cc2cc(C(N)=O)c(F)cc2nc1N)c1ncc(F)cc1-n1cccn1 [Example 34] turned out to be 6.92

# pKd of C[C@H](Oc1cc2cc(F)ccc2nc1N)c1nc(O)ccc1-n1cccn1 [Example 58] = 7.47

Kindly note the recorded pKd for C[C@H](Oc1cc2cc(F)c(Cl)cc2nc1N)c1ncc(F)cc1-n1cccn1 [Example 31] , which is 7.16

Input C[C@H](Oc1cc2cc(F)cc(F)c2nc1N)c1cc(C(=O)O)c(F)cc1-n1cccn1 [Example 23] . Output pKd: 7.37

Consider C[C@H](Oc1cc2cc(F)c(Cl)cc2nc1N)c1cc(C(N)=O)c(F)cc1-n1cccn1 [Example 2] . Its measured pKd is 7.68

---

target: purified sickle cell hemoglobin (HbS) (Homo sapiens, UniProt P68871+P69905, E7V); construct: HbS was obtained from the blood of homozygous S/S patients; experiment: Binding affinity to purified HbS by Surface Plasmon Resonance (SPR); settings: crosslinked biotinylated HbS, 1:1 binding model
measurement name: pKd
Field pKd (float): negative decimal logarithm of the concentration in molar.

compound: C[C@H](Oc1cc2cc(F)ccc2nc1N)c1cc2c(cnn2CC(N)=O)cc1-n1cccn1
target or test system: purified sickle cell hemoglobin (HbS) (Homo sapiens, UniProt P68871+P69905, E7V)
numeric result: 7.89

compound: C[C@H](Oc1cc2cc(F)ccc2nc1N)c1cc(C(=O)NCCO)ccc1-n1cccn1
target or test system: purified sickle cell hemoglobin (HbS) (Homo sapiens, UniProt P68871+P69905, E7V)
numeric result: 7.42

compound: C[C@H](Oc1cc2cc(F)cc(F)c2nc1N)c1[nH]c(=O)ccc1-n1cccn1
target or test system: purified sickle cell hemoglobin (HbS) (Homo sapiens, UniProt P68871+P69905, E7V)
numeric result: 7.80

compound: C[C@H](Oc1cc2ncc(F)cc2nc1N)c1nc(O)ccc1-n1cccn1
target or test system: purified sickle cell hemoglobin (HbS) (Homo sapiens, UniProt P68871+P69905, E7V)
numeric result: 6.60

compound: C[C@H](Oc1cc2cc([C@@H](C)O)ccc2nc1N)c1nc(O)ccc1-n1cccn1
target or test system: purified sickle cell hemoglobin (HbS) (Homo sapiens, UniProt P68871+P69905, E7V)
numeric result: 5.16

compound: C[C@H](Oc1cc2cc(F)cc(F)c2nc1N)c1cc2c(cnn2CC(=O)O)cc1-n1cccn1
target or test system: purified sickle cell hemoglobin (HbS) (Homo sapiens, UniProt P68871+P69905, E7V)
numeric result: 8.00

compound: C[C@H](Oc1cc2cc(C(N)=O)ccc2nc1N)c1cc2c(cnn2CCO)cc1-n1cccn1 (single isomer, unassigned)
target or test system: purified sickle cell hemoglobin (HbS) (Homo sapiens, UniProt P68871+P69905, E7V)
numeric result: 7.23

compound: C[C@H](Oc1cc2cc(F)ccc2nc1N)c1cc(CC(=O)O)ccc1-n1cccn1 (single isomer, unassigned)
target or test system: purified sickle cell hemoglobin (HbS) (Homo sapiens, UniProt P68871+P69905, E7V)
numeric result: 6.57

compound: C[C@H](Oc1cc2cc(F)cc(F)c2nc1N)c1cc2c(cnn2CCO)cc1-n1cccn1
target or test system: purified sickle cell hemoglobin (HbS) (Homo sapiens, UniProt P68871+P69905, E7V)
numeric result: 7.96

compound: COC(=O)c1ccc(-n2cccn2)c([C@H](C)Oc2cc3cc(F)ccc3nc2N)c1
target or test system: purified sickle cell hemoglobin (HbS) (Homo sapiens, UniProt P68871+P69905, E7V)
numeric result: 7.46

In plain terms, C[C@H](Oc1cc2cc(C(N)=O)ccc2nc1N)c1ncc(F)cc1-n1cccn1 has a documented pKd of 6.74

Memo: C[C@H](Oc1cc2cc(F)ccc2nc1N)c1cc(-c2noc(=O)[nH]2)ccc1-n1cccn1 , reported pKd: 7.85

Value of measured pKd for the entry Cc1cc2nc(N)c(O[C@@H](C)c3ncc(F)cc3-n3cccn3)cc2cn1 : 6.80

Value of measured pKd for the entry C[C@H](Oc1cc2cc(F)ccc2nc1N)c1cc2c(cnn2CC(=O)O)cc1-n1cccn1 : 8.05

get_value(item= COc1ccc(-n2cccn2)c([C@H](C)Oc2cc3cc(F)cc(F)c3nc2N)n1 , readout=pKd) returns 7.28

pKd reading for C[C@H](Oc1cc2cc(F)c(Cl)cc2nc1N)c1cc2[nH]ncc2cc1-n1cccn1 : 7.26

Documented pKd of C[C@H](Oc1cc2cc(C(N)=O)ccc2nc1N)c1nc(CO)ccc1-n1cccn1 : 6.39

Record C[C@H](Oc1cc2cc(F)ccc2nc1N)c1cc(C(=O)NCCCO)ccc1-n1cccn1 . Reported pKd: 7.19

Summary for this compound, C[C@H](Oc1cc2cc(C(N)=O)ccc2nc1N)c1nc(O)ccc1-n1cccn1 : pKd is 7.20

---

biological target: Hb in human whole blood (Homo sapiens, UniProt P68871+P69905); construct: measured in human, dog, and mouse whole blood; from tissue; host or cells: human whole blood; assay: Whole blood oxygen affinity assay (Hemox analyzer), human blood; details: 1 mM compound, 1 hour at 25 C, relative to DMSO
Assign Fulfilled to entries whose Reduction in p50 (%) Human meets or exceeds 7%; assign Not fulfilled to the rest.

molecule: C[C@H](Oc1cc2cc(F)ccc2nc1N)c1nc(O)ccc1-n1cccn1
class assignment: Fulfilled
//
molecule: C[C@H](Oc1cc2cc(C(N)=O)ccc2nc1N)c1ncc(F)cc1-n1cccn1
class assignment: Fulfilled
//
molecule: C[C@H](Oc1cc2cc(C(N)=O)ccc2nc1N)c1cc2[nH]ncc2cc1-n1cccn1
class assignment: Not fulfilled

Proceed to the following item.
Form field: Reduction in p50 (%) Human at least 7%? Entry: C[C@H](Oc1cc2cc(F)cc(F)c2nc1N)c1cc(C(=O)O)ccc1-n1cccn1
Fulfilled

---

biological target: HbS (Homo sapiens, UniProt P68871+P69905, E7V); construct: HbS was obtained from the blood of homozygous S/S patients; assay: 'R'-'T' assay (conversion of oxy HbS to deoxy HbS under deoxygenating conditions); conditions: 50% inhibition of HbS 'R'-'T' conversion; 3 uM HbS, <1% O2
Range-based classes on measured IC50: low: < 5 µM; moderate: ≥ 5 µM and < 6 µM; high: ≥ 6 µM

Example entries and their recorded answers appear below.
compound: C[C@H](Oc1cc2cc(F)cc(F)c2nc1N)c1cc2c(cnn2CC(=O)O)cc1-n1cccn1
class assignment: low

compound: C[C@H](Oc1cc2cc(F)ccc2nc1N)c1cc2c(cnn2CC(=O)O)cc1-n1cccn1
class assignment: low

compound: Cc1nc2cc(-n3cccn3)c([C@H](C)Oc3cc4cc(F)ccc4nc3N)cc2[nH]1
class assignment: moderate

compound: Cc1cc2nc(N)c(O[C@@H](C)c3ncc(F)cc3-n3cccn3)cc2cn1
class assignment: high

compound: C[C@H](Oc1cc2cc(F)c(Cl)cc2nc1N)c1nc(C(N)=O)ccc1-n1cccn1
class assignment: low

compound: C[C@H](Oc1cc2c(F)ccc(F)c2nc1N)c1ncc(F)cc1-n1cccn1
class assignment: low

compound: C[C@H](Oc1cc2cc(F)ccc2nc1N)c1cc(CCC(=O)O)ccc1-n1cccn1
class assignment: low

compound: C[C@H](Oc1cc2cc(F)cc(F)c2nc1N)c1cc(C(=O)NS(C)(=O)=O)ccc1-n1cccn1
class assignment: low

compound: C[C@H](Oc1cc2cc(F)ccc2nc1N)c1nc2[nH]ncc2cc1-n1cccn1
class assignment: low

compound: C[C@H](Oc1cc2cc(C(N)=O)ccc2nc1N)c1nc(CO)ccc1-n1cccn1
class assignment: moderate

Which of the defined bands does the recorded IC50 of C[C@H](Oc1cc2cc(F)ccc2nc1N)c1cc(C(=O)NCCCO)ccc1-n1cccn1 sit within?
low
